molecular target: Amaranthus palmeri cytosolic GS1.1 K177L; assay: GS enzyme inhibition assay, GS1.1 K177L; conditions: read-out: Glufosinate‐ammonium IC50
readout_kind: pIC50
The scale used: pIC50 is minus the common logarithm of the concentration in molar units.

Quote pIC50 reported for CP(=O)(O)CCC(N)C(=O)O (stereo not shown) [Glufosinate‐ammonium] please. 5.89

----------
molecular target: Amaranthus palmeri cytosolic GS1.1 C159H; test: GS enzyme inhibition assay, GS1.1 C159H; conditions: read-out: Glufosinate‐ammonium IC50
readout_kind: IC50 (mM)
Expressed in mM, but write only the number.

For the molecule CP(=O)(O)CCC(N)C(=O)O (stereo not shown) [Glufosinate‐ammonium] , give its measured IC50 value. 4.05
